Experiment: Brain to plasma ratio in FVB mouse model of aconitine-induced pain expressing human Nav1.7 I848T mutant administered orally 120 mins prior to aconitine administered and measured after 70 mins by UPLC-ESI MS/MS analysis
Format: ADME
Details: route po, time 190 min, read-out: BPR
Readout Name: Kp at 3.167 h
Answer with a number only.

[in] Consider the compound "CC1(COc2cc(F)c(C(=O)NS(=O)(=O)C3CC3)cc2C2CC2)CCC2(CC1)CC2" and give its recorded Kp at 3.167 h.
[out] 0.08

---

Test: Oral bioavailability in mouse at 30 mg/kg
Type: ADME, organism-based
Details: in vivo
Readout Name: bioavailability (%)
Answer in %, number only, no unit symbol.

[in] Note down bioavailability recorded for "CS(=O)(=O)NC(=O)c1cc(Cl)c(OCC23CC4CC(CC(C4)C2)C3)cc1F"
[out] 100

---

Assay: Half-life in Beagle dog at 1 mg/kg, po
Type: ADME, organism-based, Canis lupus familiaris
Settings: in vivo
Readout Name: half-life (h)
Give your result in h as a bare value.

[in] Tell me its half-life given "CC1(COc2cc(F)c(C(=O)NS(=O)(=O)C3CC3)cc2C2CC2)CCC2(CC1)CC2" as the entry.
[out] 6

---

Reported Papp A→B by item:
Tested on: MDR1
Assay: Apparent permeability from apical to basolateral side in MDCK1 cells expressing MDR1
Format: ADME, cell-based, Canis lupus familiaris
Details: dog, MDCK-MDR1
Give the number first and the unit second.

{"Smiles Code": "CC1(COc2cc(F)c(C(=O)NS(=O)(=O)C3CC3)cc2C2CC2)CCC(F)(F)CC1", "Papp A→B": "11 ×10⁻⁶ cm/s"}

As a next step, examine the compound that follows.
[in] Given "CC1(COc2cc(F)c(C(=O)NS(=O)(=O)C3CC3)cc2C2CC2)CCC2(CC1)CC2" , respond with its Papp A→B.
[out] 3.7 ×10⁻⁶ cm/s

---

Experiment: Cmax in Beagle dog at 1 mg/kg, po
Format: ADME, organism-based, Canis lupus familiaris
Parameters: dose 1 mg/kg, route po
Settings: in vivo
Readout Name: Cmax (µM)
Kindly provide the numeric value in µM only, without the unit symbol.

[in] Kindly indicate its recorded Cmax. Item: "CC1(COc2cc(F)c(C(=O)NS(=O)(=O)C3CC3)cc2C2CC2)CCC2(CC1)CC2"
[out] 9

---

Experiment: Efflux ratio of apparent permeability across basolateral to apical side over apical to basolateral side in MDCK1 cells
Assay type: ADME, cell-based, Canis lupus familiaris
Details: dog, MDCK
Readout Name: efflux ratio
Give the figure only, with no unit attached.

[in] For the compound "CC1(COc2cc(F)c(C(=O)NS(=O)(=O)C3CC3)cc2C2CC2)CCC2(CC1)CC2" , give its measured efflux ratio value.
[out] 1

---

Molecular target: Sodium channel protein type 9 subunit alpha (Homo sapiens)
Sequence (Q15858 whole entry): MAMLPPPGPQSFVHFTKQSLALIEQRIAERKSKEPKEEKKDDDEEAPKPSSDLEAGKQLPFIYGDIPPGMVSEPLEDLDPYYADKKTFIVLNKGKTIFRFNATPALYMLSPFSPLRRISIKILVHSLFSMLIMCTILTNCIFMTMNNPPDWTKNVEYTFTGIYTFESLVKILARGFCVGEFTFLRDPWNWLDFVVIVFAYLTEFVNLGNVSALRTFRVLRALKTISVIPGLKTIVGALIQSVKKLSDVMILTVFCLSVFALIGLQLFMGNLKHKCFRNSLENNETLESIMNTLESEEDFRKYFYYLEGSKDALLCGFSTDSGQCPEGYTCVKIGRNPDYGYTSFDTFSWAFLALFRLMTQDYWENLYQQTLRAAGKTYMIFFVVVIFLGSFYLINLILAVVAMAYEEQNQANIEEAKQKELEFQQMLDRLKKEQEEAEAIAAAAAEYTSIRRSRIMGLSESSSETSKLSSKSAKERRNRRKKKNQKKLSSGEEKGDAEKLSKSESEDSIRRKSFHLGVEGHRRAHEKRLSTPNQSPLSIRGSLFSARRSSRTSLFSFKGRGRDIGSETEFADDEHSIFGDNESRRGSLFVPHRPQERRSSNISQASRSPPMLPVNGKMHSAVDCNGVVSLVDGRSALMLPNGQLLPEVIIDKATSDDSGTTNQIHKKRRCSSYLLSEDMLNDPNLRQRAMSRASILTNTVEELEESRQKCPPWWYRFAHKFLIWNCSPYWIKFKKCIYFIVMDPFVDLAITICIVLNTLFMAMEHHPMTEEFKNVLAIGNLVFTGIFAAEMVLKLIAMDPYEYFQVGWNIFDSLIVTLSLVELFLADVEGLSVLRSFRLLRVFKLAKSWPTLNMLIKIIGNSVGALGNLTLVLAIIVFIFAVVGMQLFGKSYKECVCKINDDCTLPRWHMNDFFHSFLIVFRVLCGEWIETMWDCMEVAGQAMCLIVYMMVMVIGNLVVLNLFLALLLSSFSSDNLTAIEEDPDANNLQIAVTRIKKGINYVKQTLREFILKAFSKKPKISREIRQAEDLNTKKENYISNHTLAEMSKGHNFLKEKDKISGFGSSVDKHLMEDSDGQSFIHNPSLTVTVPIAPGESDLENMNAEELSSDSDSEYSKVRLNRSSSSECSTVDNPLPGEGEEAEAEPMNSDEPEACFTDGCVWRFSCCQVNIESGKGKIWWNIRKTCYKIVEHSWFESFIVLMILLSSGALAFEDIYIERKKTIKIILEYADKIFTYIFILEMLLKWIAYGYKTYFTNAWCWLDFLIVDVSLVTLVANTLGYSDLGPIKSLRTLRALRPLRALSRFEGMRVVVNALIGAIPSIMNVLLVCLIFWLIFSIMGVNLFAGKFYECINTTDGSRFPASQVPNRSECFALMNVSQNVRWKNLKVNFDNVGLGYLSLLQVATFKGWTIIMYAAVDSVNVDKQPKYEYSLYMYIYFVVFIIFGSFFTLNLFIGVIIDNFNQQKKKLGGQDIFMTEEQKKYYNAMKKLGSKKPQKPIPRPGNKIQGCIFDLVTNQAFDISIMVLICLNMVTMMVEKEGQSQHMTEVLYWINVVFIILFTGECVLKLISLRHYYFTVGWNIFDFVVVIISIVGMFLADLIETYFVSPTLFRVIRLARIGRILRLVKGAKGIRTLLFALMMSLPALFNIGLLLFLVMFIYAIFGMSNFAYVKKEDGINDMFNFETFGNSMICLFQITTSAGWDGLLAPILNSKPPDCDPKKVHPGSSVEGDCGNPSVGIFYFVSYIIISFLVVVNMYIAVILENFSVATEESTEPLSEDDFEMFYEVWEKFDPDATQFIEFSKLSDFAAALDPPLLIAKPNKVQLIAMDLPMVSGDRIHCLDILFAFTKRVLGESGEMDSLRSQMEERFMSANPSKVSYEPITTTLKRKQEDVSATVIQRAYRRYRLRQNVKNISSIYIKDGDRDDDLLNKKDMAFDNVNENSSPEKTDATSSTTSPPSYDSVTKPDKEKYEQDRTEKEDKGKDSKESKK
Experiment: Displacement of [3H]GX-545 from human Nav1.7 alpha subunit expressed in HEK293 cells co-expressing beta1 subunit by liquid scintillation counting analysis
Assay type: cell-based
Listed next: entries and their corresponding pIC50.
Keep in mind that pIC50 stands for -log10 of concentration in molar terms.

Solved entries:
{"Smiles Code": "CCC1(COc2cc(F)c(C(=O)NS(=O)(=O)C3CC3)cc2C2CC2)CCC(F)(F)CC1", "Result Number": 7.77}
{"Smiles Code": "CS(=O)(=O)NC(=O)c1cc(C2CC2)c(OCC23CC4CC(CC(C4)C2)C3)cc1F", "Result Number": 8.22}
{"Smiles Code": "CS(=O)(=O)NC(=O)c1cc(Cl)c(OC2CCCCC2)cc1F", "Result Number": 5.92}
{"Smiles Code": "Cc1cc(C(=O)NS(C)(=O)=O)c(F)cc1OCC12CC3CC(CC(C3)C1)C2", "Result Number": 7.43}
{"Smiles Code": "CS(=O)(=O)NC(=O)c1cc(Cl)c(OCC23CC4CC(C2)C(F)(F)C(C4)C3)cc1F", "Result Number": 6.54}
{"Smiles Code": "CS(=O)(=O)NC(=O)c1cc(F)c(OCC23CC4CC(CC(C4)C2)C3)cc1F", "Result Number": 6.19}

[in] Answer with reported pIC50 of "CS(=O)(=O)NC(=O)c1cc(Cl)c(OCCC2CC2)cc1F"
[out] 5.57

[in] State its pIC50 for this molecule: "CS(=O)(=O)NC(=O)c1cc(Cl)c(OCC23CC4CC(CC(C4)C2)C3)cc1Cl"
[out] 5.64

[in] Please indicate pIC50 recorded for "CS(=O)(=O)NC(=O)c1cc(Cl)c(OCCC2CCCCC2)cc1F"
[out] 6.30
